Each recorded value in this set is attributed to the supplement of paper PMC9112550.

Attribute: shrunken log2 fold change
test system: Escherichia coli TOP10; assay: shrunken log2 fold change of peptide-encoding DNA abundance (4.5 h post-induction vs induction); higher = less antimicrobial activity (less host growth inhibition); settings: time post-induction: 4.5 h; library: site-saturation at positions 5, 18, 19, 20
recorded_metric: shrunken log2 fold change

{"biopolymer_sequence": "RRIRHRPPRLPRPRPRPLVAPRP", "system_name": "Escherichia coli TOP10", "recorded_metric": "shrunken log2 fold change", "value": -0.103}
{"biopolymer_sequence": "RRIRFRPPRLPRPRPRPGDFPRP", "system_name": "Escherichia coli TOP10", "recorded_metric": "shrunken log2 fold change", "value": -0.209}
{"biopolymer_sequence": "RRIRVRPPRLPRPRPRPAPTPRP", "system_name": "Escherichia coli TOP10", "recorded_metric": "shrunken log2 fold change", "value": 0.638}
{"biopolymer_sequence": "RRIRVRPPRLPRPRPRPTLAPRP", "system_name": "Escherichia coli TOP10", "recorded_metric": "shrunken log2 fold change", "value": 0.797}
{"biopolymer_sequence": "RRIRCRPPRLPRPRPRPQMMPRP", "system_name": "Escherichia coli TOP10", "recorded_metric": "shrunken log2 fold change", "value": -0.346}
{"biopolymer_sequence": "RRIRYRPPRLPRPRPRPKVEPRP", "system_name": "Escherichia coli TOP10", "recorded_metric": "shrunken log2 fold change", "value": -0.157}
{"biopolymer_sequence": "RRIRHRPPRLPRPRPRPNGMPRP", "system_name": "Escherichia coli TOP10", "recorded_metric": "shrunken log2 fold change", "value": -0.0133}
{"biopolymer_sequence": "RRIRIRPPRLPRPRPRPSWDPRP", "system_name": "Escherichia coli TOP10", "recorded_metric": "shrunken log2 fold change", "value": -0.462}

---

system: Escherichia coli TOP10; assay: shrunken log2 fold change of peptide-encoding DNA abundance (4.5 h post-induction vs induction); higher = less antimicrobial activity (less host growth inhibition); conditions: time post-induction: 4.5 h; library: site-saturation at positions 5, 18, 19, 20;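 further: peptides expressed intracellularly from a pBAD plasmid library in pooled LB shake-flask culture, induced with 0.3% L-arabinose, DNA abundance read by NGS, three biological replicates, DESeq2 with apeglm shrinkage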
Decide using shrunken log2 fold change: a value greater than or equal to -0.02 is yes (1), a smaller one is no (0).

{"biopolymer_sequence": "RRIRRRPPRLPRPRPRPHNTPRP", "cat": "no (0)"}
{"biopolymer_sequence": "RRIRCRPPRLPRPRPRPFQMPRP", "cat": "no (0)"}
{"biopolymer_sequence": "RRIRKRPPRLPRPRPRPMRVPRP", "cat": "yes (1)"}
{"biopolymer_sequence": "RRIRERPPRLPRPRPRPGTDPRP", "cat": "yes (1)"}
{"biopolymer_sequence": "RRIRVRPPRLPRPRPRPQGFPRP", "cat": "no (0)"}
{"biopolymer_sequence": "RRIRTRPPRLPRPRPRPFTCPRP", "cat": "yes (1)"}
{"biopolymer_sequence": "RRIRRRPPRLPRPRPRPDMDPRP", "cat": "no (0)"}
{"biopolymer_sequence": "RRIRSRPPRLPRPRPRPGIKPRP", "cat": "no (0)"}
{"biopolymer_sequence": "RRIRNRPPRLPRPRPRPMPAPRP", "cat": "no (0)"}
{"biopolymer_sequence": "RRIRIRPPRLPRPRPRPTHSPRP", "cat": "no (0)"}
{"biopolymer_sequence": "RRIRKRPPRLPRPRPRPPNSPRP", "cat": "yes (1)"}
{"biopolymer_sequence": "RRIRQRPPRLPRPRPRPTIGPRP", "cat": "yes (1)"}
{"biopolymer_sequence": "RRIRNRPPRLPRPRPRPINIPRP", "cat": "yes (1)"}
{"biopolymer_sequence": "RRIRPRPPRLPRPRPRPNFNPRP", "cat": "no (0)"}
{"biopolymer_sequence": "RRIRCRPPRLPRPRPRPFQQPRP", "cat": "yes (1)"}
